Answer each item with its documented inhibition at 0.01 µM.
- target_under_test: Acyl-CoA:cholesterol acyltransferase (ACAT) (Rattus norvegicus)
- Construct: prepared from the microsomal fraction of mucosal cells from the small intestines of rats; from tissue; host or cells: microsomal fraction of small-intestinal mucosal cells, fasted 6-week-old male Sprague-Dawley rats
- Sequence (Q7TQM4 1-524): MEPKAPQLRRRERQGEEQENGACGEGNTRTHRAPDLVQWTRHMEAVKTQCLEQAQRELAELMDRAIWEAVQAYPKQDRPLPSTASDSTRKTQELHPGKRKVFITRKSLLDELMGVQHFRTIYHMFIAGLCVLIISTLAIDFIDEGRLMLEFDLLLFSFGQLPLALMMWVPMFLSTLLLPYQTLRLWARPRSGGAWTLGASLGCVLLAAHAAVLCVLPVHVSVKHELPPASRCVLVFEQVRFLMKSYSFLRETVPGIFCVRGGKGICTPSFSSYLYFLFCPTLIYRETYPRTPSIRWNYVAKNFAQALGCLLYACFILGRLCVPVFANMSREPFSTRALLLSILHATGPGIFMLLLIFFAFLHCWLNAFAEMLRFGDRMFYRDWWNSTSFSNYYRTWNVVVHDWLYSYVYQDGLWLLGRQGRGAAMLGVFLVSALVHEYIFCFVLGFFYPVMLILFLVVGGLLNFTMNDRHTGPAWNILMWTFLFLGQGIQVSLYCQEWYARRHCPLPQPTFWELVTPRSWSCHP
- assay_text: ACAT inhibitory action: labeled cholesterol ester formation from [1-14C]oleoyl-CoA and endogenous cholesterol, small-intestinal mucosal microsomal enzyme
- Assay type: biochemical, rat (Sprague-Dawley)
- assay_context: 10^-8 M; read-out: ACAT inhibitory rate (%) (in parentheses)
Give the number; % is assumed, so skip it.

Exam item: # lookup: inhibition at 0.01 µM of Cc1ccccc1-c1c(CC(=O)Nc2c(C(C)C)cccc2C(C)C)oc2ccc(Cl)cc12
Marked response: 93.7

Exam item: # lookup: inhibition at 0.01 µM of CCOc1cccc(OCC)c1NC(=O)Nc1oc2ccc(Cl)cc2c1-c1ccccc1C
Marked response: 39.9

Exam item: # lookup: inhibition at 0.01 µM of Cc1ccccc1-c1c(NC(=O)Nc2c(C(C)C)cccc2C(C)C)oc2ccc(Cl)cc12
Marked response: 92.2

Exam item: # lookup: inhibition at 0.01 µM of COc1cccc(OC)c1NC(=O)Nc1oc2ccc(Cl)cc2c1-c1ccccc1C
Marked response: 28.8

Exam item: # lookup: inhibition at 0.01 µM of CCOc1cccc(OCC)c1NC(=O)Cc1oc2ccc(Cl)cc2c1-c1ccccc1C
Marked response: 50.3

###

- target_under_test: Acyl-CoA:cholesterol acyltransferase (ACAT) (Rattus norvegicus, UniProt Q7TQM4)
- Construct: prepared from the microsomal fraction of mucosal cells from the small intestines of rats; from tissue; host or cells: microsomal fraction of small-intestinal mucosal cells, fasted 6-week-old male Sprague-Dawley rats
- assay_text: ACAT inhibitory action: labeled cholesterol ester formation from [1-14C]oleoyl-CoA and endogenous cholesterol, small-intestinal mucosal microsomal enzyme
- Assay type: biochemical, rat (Sprague-Dawley)
- assay_context: 10^-6 M; read-out: ACAT inhibitory rate (%)
Answer each item with its documented inhibition at 1 µM.
Give the number; % is assumed, so skip it.

Exam item: # lookup: inhibition at 1 µM of CC(C)c1cccc(C(C)C)c1NC(=O)Cc1oc2ccc(Cl)cc2c1-c1ccccc1
Marked response: 99

Exam item: # lookup: inhibition at 1 µM of COc1cccc(OC)c1NC(=O)Cc1oc2ccc(Cl)cc2c1-c1ccccc1C
Marked response: 98.8

Exam item: # lookup: inhibition at 1 µM of Cc1ccccc1-c1c(CC(=O)Nc2c(F)cc(F)cc2F)oc2ccc(Cl)cc12
Marked response: 92.9

Exam item: # lookup: inhibition at 1 µM of Cc1cc(C)c(NC(=O)Cc2oc3ccc(Cl)cc3c2-c2ccccc2C)c(C)c1
Marked response: 90.8

Exam item: # lookup: inhibition at 1 µM of COc1cccc(OC)c1NC(=O)Cc1c(-c2ccccc2C)c2cc(Cl)ccc2n1C
Marked response: 91.2

Exam item: # lookup: inhibition at 1 µM of Cc1ccccc1-c1c(NC(=O)Nc2c(F)cc(F)cc2F)oc2ccc(Cl)cc12
Marked response: 90.1

Exam item: # lookup: inhibition at 1 µM of Cc1ccccc1-c1c(CC(=O)Nc2c(C(C)C)cccc2C(C)C)n(C)c2ccc(Cl)cc12
Marked response: 92.3

Exam item: # lookup: inhibition at 1 µM of Cc1ccccc1-c1c(NC(=O)Nc2c(C(C)C)cccc2C(C)C)oc2ccc(Cl)cc12
Marked response: 99.1

Exam item: # lookup: inhibition at 1 µM of COc1cccc(OC)c1NC(=O)Cc1oc2ccc(Cl)cc2c1-c1ccccc1
Marked response: 93.2

Exam item: # lookup: inhibition at 1 µM of Cc1ccccc1-c1c(CC(=O)Nc2c(C(C)C)cccc2C(C)C)oc2ccc(Cl)cc12
Marked response: 99.2

Exam item: # lookup: inhibition at 1 µM of CCOc1cccc(OCC)c1NC(=O)Nc1oc2ccc(Cl)cc2c1-c1ccccc1C
Marked response: 99.4

Exam item: # lookup: inhibition at 1 µM of CCOc1cccc(OCC)c1NC(=O)Cc1oc2ccc(Cl)cc2c1-c1ccccc1C
Marked response: 98.1

Exam item: # lookup: inhibition at 1 µM of COc1cccc(OC)c1NC(=O)Nc1oc2ccc(Cl)cc2c1-c1ccccc1C
Marked response: 99

Provenance of the data: patent US5492929A
